Property: pIC50; scope: individual compounds
tested on: NCI-H460; assay: Antiproliferative activity against human NCI-H460 cells after short term exposure for 1 hr measured after 72 hrs in drug-free medium; assay type: functional, cell-based
pIC50: −log10 of the molar value.

{"compound": "CC[C@@]1(O)C(=O)OCc2c1cc1n(c2=O)C(N=[N+]=[N-])(N=[N+]=[N-])c2cc3ccccc3nc2-1 (some centres not stated)", "pIC50": 5.03}
{"compound": "CC[C@@]1(O)C(=O)OCC2=C1C=C1c3nc4ccccc4cc3C3NN=C2N13 (mixture of isomers)", "pIC50": 4.33}
{"compound": "CC[C@@]1(O)C(=O)OCc2c1cc1n(c2=O)[C@@H](N(NC(=O)OCc2ccccc2)C(=O)OCc2ccccc2)c2cc3ccccc3nc2-1", "pIC50": 4.07}
{"compound": "CC[C@@]1(O)C(=O)OCc2c1cc1n(c2=O)[C@H](N(NC(=O)OCc2ccccc2)C(=O)OCc2ccccc2)c2cc3ccccc3nc2-1", "pIC50": 4.22}
{"compound": "CC[C@@]1(O)C(=O)OCc2c1cc1n(c2=O)C(CCCO)c2cc3ccccc3nc2-1 (mixture of isomers)", "pIC50": 4.80}
{"compound": "CC[C@@]1(O)C(=O)OCc2c1cc1n(c2=O)[C@@H](N=[N+]=[N-])c2cc3ccccc3nc2-1", "pIC50": 4.94}
{"compound": "CC[C@@]1(O)C(=O)OCc2c1cc1n(c2=O)[C@H](N=[N+]=[N-])c2cc3ccccc3nc2-1", "pIC50": 5.17}

---

molecular target: DNA topoisomerase 1 (Homo sapiens) (UniProt P11387); assay: Induction of human recombinant topoisomerase 1-mediated SV40 DNA cleavage at 1 to 50 uM after 30 mins by PAGE
Sequence (P11387 whole entry): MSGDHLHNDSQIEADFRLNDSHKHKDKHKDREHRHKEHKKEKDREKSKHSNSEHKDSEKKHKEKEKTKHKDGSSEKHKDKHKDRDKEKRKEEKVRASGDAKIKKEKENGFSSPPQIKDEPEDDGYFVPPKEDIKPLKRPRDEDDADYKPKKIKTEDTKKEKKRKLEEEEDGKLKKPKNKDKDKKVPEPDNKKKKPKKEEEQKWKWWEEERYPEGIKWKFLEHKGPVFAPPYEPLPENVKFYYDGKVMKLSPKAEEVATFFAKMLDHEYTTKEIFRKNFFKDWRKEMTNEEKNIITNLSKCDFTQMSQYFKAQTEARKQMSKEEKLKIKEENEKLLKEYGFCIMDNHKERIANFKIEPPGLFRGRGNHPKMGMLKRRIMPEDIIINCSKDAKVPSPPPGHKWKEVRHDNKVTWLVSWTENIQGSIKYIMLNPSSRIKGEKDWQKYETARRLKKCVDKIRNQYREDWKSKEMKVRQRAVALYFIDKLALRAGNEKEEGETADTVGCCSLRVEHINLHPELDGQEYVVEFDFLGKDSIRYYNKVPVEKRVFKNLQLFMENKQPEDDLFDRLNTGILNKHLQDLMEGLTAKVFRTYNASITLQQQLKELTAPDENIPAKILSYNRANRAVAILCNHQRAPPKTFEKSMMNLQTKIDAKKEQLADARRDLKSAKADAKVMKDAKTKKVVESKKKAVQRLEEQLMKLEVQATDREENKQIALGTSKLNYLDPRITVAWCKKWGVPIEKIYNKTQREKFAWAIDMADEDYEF
Activity calls are given as the source filed them. No cut-off for these calls is given here.

{"compound": "CCc1c2c(nc3ccc(O)cc13)-c1cc3c(c(=O)n1C2)COC(=O)[C@]3(O)CC [7-ETHYL-10-HYDROXYCAMPTOTHECIN]", "Activity": "Active"}
{"compound": "CC[C@@]1(O)C(=O)OCc2c1cc1c3nc4ccccc4cc3c3nnc2n13", "Activity": "Active"}
{"compound": "CC[C@@]1(O)C(=O)OCc2c1cc1n(c2=O)C(N)c2cc3ccccc3nc2-1 (stereo not given in full)", "Activity": "Active"}
{"compound": "CC[C@@]1(O)C(=O)OCc2c1cc1n(c2=O)[C@@H](F)c2cc3ccccc3nc2-1", "Activity": "Active"}
{"compound": "CC[C@@]1(O)C(=O)OCc2c1cc1n(c2=O)[C@H](N(NC(=O)OC(C)(C)C)C(=O)OC(C)(C)C)c2cc3ccccc3nc2-1", "Activity": "Active"}

---

Property: log10 of IC50; scope: individual compounds
system: NCI-H460; assay: Antiproliferative activity against human NCI-H460 cells after short term exposure for 1 hr measured after 72 hrs in drug-free medium; format: functional, cell-based
Where a name gives a salt, the structure may show the parent alone.
value kind: log10 of IC50 (log10 of the value in µM)

{"compound": "CC[C@@]1(O)C(=O)OCc2c1cc1n(c2=O)C(N)c2cc3ccccc3nc2-1 (some centres undefined)", "value kind": "log10 of IC50", "meas value": 1.48}
{"compound": "CC[C@@]1(O)C(=O)OCc2c1cc1n(c2=O)C(C)c2cc3ccccc3nc2-1 (mixture of isomers)", "value kind": "log10 of IC50", "meas value": 0.77}
{"compound": "CC[C@@]1(O)C(=O)OCc2c1cc1n(c2=O)[C@H](F)c2cc3ccccc3nc2-1", "value kind": "log10 of IC50", "meas value": 1.75}
{"compound": "CC[C@@]1(O)C(=O)OCc2c1cc1c3nc4ccccc4cc3c3nnc2n13", "value kind": "log10 of IC50", "meas value": 1.03}
{"compound": "CC[C@@]1(O)C(=O)OCc2c1cc1n(c2=O)Cc2cc3c(CN(C)C)c(O)ccc3nc2-1 [TOPOTECAN HYDROCHLORIDE]", "value kind": "log10 of IC50", "meas value": -0.21}
{"compound": "CC[C@@]1(O)C(=O)OCc2c1cc1n(c2=O)[C@H](N(NC(=O)OC(C)(C)C)C(=O)OC(C)(C)C)c2cc3ccccc3nc2-1", "value kind": "log10 of IC50", "meas value": 1.89}
{"compound": "CCc1c2c(nc3ccc(O)cc13)-c1cc3c(c(=O)n1C2)COC(=O)[C@]3(O)CC [7-ETHYL-10-HYDROXYCAMPTOTHECIN]", "value kind": "log10 of IC50", "meas value": -0.89}
{"compound": "CC[C@@]1(O)C(=O)OCc2c1cc1n(c2=O)[C@@H](F)c2cc3ccccc3nc2-1", "value kind": "log10 of IC50", "meas value": 1.75}
